The measurements presented in this section are drawn from patent US20250051443A1.

SYSTEM_UNDER_TEST: T1, human CD3 (human, UniProt P07766 23-207; P09693 23-182; P04234 22-171)
T1 construct: whole, on cells; also called CD3 on Jurkat T cells; CD3 on primary human T cells
TEST_NAME: apparent KD (KDapp), flow cytometry titration on purified primary human T cells
MEASURED_METRIC: Kd (nM)
Write the answer as a number in nM, unit excluded.

Per the record, F332-8F7 (antibody, mouse IgG2a, V domains shown, also called F332-8F7-3) VH: QVQLQQPGAELGKPGTSVKLSCKASGYTFTSYWIHWVKQRPGQGLEWIGNINPNSGSTNYNEKFKNKATLTVDKSSSTASMQLSTLTSEDSAVYYCTRDISGQYYFDYWGQGTTLTVSS VL: DIVMSQSPSSLAVSTGGEVTMSCKSSQSLLNSRTRKNYLAWYQQKPGQSPKLLIYWASTRESGVPDRFTGSGSGTDFTLTISSVQAEDLAVYYCIQSYSLRTFGGGTKLGIK has Kd of 0.26

Per the record, F332-7B7 (antibody, mouse IgG2a, V domains shown, also called F332-7B7-2) VH: QVQLQQPGTELGKPGTSVKLSCKASGYTFTNYWMHWVKQRPGQGLEWIGNINPNSGSTNYNQKFKSKATLTLDKSSSTAYMQFSTLTSEDSAVYYCTRDSSGQYYFDYWGQGTTLTVSS VL: DIVMSQSPSSLAVSAGEKVTMSCKSSQSLLNSRTRKNYLAWYQQKPGQSPKLLIYWASTRESGVPDRFTGSGSGTDFTLTISSVQAEDLAVYYCIQSFHLRTFGGGTKLEIK has Kd of 0.23

Per the record, F332-1E2 (antibody, mouse IgG2a, V domains shown, Sister clone 8C5 shares the same entries; also called F332-1E2-2; F332-1E2 (8C5)) VH: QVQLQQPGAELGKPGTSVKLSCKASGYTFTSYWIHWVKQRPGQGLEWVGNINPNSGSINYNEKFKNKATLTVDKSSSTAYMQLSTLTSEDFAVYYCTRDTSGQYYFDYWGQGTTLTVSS VL: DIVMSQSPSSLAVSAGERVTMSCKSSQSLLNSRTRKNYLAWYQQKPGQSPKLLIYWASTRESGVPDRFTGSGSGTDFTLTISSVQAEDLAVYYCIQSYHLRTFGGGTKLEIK has Kd of 0.4
